Target: T1, human IL-33 (R&D Systems, #3625-IL-010/CF) (human, UniProt O95760 112-270)
T1 sequence (looked up): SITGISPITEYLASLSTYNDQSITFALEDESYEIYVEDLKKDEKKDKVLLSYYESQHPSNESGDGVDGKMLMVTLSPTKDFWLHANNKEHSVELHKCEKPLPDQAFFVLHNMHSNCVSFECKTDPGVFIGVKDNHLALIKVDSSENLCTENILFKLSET
Test: cell-based or functional assay
Would you kindly list Ph-p38 MFI at 2 nM Ab (500 pM human IL-33, primary basophils) for each of these binders?

| binder | observed.result |
| --- | --- |
| H1M9566N (antibody, IgG1, V domains shown, also called RG2) VH: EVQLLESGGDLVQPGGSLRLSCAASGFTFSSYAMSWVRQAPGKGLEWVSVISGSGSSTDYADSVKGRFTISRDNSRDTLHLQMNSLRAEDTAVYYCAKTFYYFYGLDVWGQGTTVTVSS VL: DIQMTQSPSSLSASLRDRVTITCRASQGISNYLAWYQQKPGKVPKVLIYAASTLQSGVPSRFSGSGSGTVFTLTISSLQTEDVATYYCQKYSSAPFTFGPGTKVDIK | 146 MFI |
| 10C12.38.H6.87Y.58I IgG4 (antibody, V domains shown, also called anti-IL33 10C12.38.H6.87Y.58I IgG4) VH: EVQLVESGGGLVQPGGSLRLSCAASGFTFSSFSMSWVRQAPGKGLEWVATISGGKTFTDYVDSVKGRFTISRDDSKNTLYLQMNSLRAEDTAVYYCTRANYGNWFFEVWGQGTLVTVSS VL: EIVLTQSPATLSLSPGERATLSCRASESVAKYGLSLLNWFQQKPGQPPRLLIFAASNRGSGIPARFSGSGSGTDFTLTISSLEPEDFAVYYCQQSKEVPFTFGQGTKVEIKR | 23 MFI |
| H4H9640P (antibody, IgG4, V domains shown, also called RG6) VH: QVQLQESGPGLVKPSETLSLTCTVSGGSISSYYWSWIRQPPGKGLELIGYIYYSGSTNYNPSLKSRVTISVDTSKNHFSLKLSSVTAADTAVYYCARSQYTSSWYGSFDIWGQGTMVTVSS VL: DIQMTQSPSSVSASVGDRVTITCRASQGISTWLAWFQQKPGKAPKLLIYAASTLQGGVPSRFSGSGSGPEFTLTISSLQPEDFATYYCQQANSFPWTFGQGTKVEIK | 52 MFI |

State recorded Ph-p38 MFI at 2 nM Ab (500 pM human IL-33, primary basophils) for all listed binders.
1. H1M9559N (antibody, IgG1, V domains shown, also called RG1) VH: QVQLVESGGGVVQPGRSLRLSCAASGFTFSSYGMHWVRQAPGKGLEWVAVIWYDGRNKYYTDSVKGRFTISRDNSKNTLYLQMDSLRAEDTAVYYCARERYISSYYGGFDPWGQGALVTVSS VL: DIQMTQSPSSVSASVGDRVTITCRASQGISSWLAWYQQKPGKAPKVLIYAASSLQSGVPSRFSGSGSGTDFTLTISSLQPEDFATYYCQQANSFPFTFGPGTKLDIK
2. H4H9659P (antibody, IgG4, V domains shown, also called RG7) VH: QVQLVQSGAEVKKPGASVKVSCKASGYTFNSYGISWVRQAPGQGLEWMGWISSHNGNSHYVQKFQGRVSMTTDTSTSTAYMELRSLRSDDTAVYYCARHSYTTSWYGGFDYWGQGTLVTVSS VL: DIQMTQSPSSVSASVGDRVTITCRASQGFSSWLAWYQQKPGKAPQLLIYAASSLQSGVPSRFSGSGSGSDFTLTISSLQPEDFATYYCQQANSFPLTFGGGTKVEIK
3. H4H9633P (antibody, IgG4, V domains shown, also called RG5) VH: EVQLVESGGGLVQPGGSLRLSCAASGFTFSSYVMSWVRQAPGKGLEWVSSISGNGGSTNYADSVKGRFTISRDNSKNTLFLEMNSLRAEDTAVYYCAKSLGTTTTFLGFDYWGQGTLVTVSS VL: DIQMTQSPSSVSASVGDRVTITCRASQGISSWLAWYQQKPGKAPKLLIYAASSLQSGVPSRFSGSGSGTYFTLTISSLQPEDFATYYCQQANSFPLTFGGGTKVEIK
4. H1M9568N (antibody, IgG1, V domains shown, also called RG3) VH: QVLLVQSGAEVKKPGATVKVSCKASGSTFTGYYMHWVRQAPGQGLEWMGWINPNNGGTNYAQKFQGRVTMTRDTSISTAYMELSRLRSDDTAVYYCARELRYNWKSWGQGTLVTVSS VL: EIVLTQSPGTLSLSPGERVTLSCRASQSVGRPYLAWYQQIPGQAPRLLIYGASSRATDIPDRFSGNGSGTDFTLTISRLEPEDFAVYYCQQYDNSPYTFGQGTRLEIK
5. H4H9629P (antibody, IgG4, V domains shown, also called RG4) VH: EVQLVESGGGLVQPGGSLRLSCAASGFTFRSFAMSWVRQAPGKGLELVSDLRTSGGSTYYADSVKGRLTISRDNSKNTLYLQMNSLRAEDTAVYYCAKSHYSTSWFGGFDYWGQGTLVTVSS VL: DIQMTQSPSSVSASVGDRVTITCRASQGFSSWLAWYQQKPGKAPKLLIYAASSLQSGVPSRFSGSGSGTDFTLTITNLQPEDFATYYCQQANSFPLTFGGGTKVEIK

Response line:
1: 100 MFI; 2: 49 MFI; 3: 142 MFI; 4: 38 MFI; 5: 38 MFI
